- System: Dialister pneumosintes
- assayRemarks: Antimicrobial activity against Dialister pneumosintes by agar dilution method
- Assay type: functional
attributeMeasured: MIC (µg/mL)

1. CCC[C@@H]1C[C@@H](C(=O)N[C@@H]([C@H]2O[C@H](SC)[C@H](O)[C@@H](O)[C@H]2O)[C@H](C)Cl)N(C)C1 [CLINDAMYCIN]
2. Cc1ncc([N+](=O)[O-])n1CCO [METRONIDAZOLE]
3. C[C@H]1COc2c(N3CCN(C)CC3)c(F)cc3c(=O)c(C(=O)O)cn1c23.C[C@H]1COc2c(N3CCN(C)CC3)c(F)cc3c(=O)c(C(=O)O)cn1c23.O [LEVOFLOXACIN]
[in] Please put the 3 compounds above in a list ordered by falling MIC. I'd appreciate it if you listed the labels in the requested order.
[out] 2, 3, 1
(2: 1 µg/mL, 3: 0.25 µg/mL, 1: 0.125 µg/mL)

---

- Test system: Dialister micraerophilus
- assayRemarks: Antimicrobial activity against Dialister micraerophilus assessed as susceptibility breakpoint by CA-SFM method
- Assay type: functional
attributeMeasured: Activity

compound	attributeMeasured	reportedResult
CC[C@H]1OC(=O)[C@H](C)[C@@H](O[C@H]2C[C@@](C)(OC)[C@@H](O)[C@H](C)O2)[C@H](C)[C@@H](O[C@@H]2O[C@H](C)C[C@H](N(C)C)[C@H]2O)[C@](C)(O)C[C@@H](C)C(=O)[C@H](C)[C@@H](O)[C@]1(C)O	Activity	<=1 ug ml-1
O=C(N[C@H](CO)[C@H](O)c1ccc([N+](=O)[O-])cc1)C(Cl)Cl	Activity	<=8 ug ml-1
CCN1CCN(C(=O)N[C@@H](C(=O)N[C@@H]2C(=O)N3[C@@H]2SC(C)(C)[C@@H]3C(=O)O)c2ccccc2)C(=O)C1=O	Activity	<=8 ug ml-1
CO[C@H]1/C=C/O[C@@]2(C)Oc3c(C)c(O)c4c(O)c(c(/C=N/N5CCN(C)CC5)c(O)c4c3C2=O)NC(=O)/C(C)=C\C=C\[C@H](C)[C@H](O)[C@@H](C)[C@@H](O)[C@@H](C)[C@H](OC(C)=O)[C@@H]1C	Activity	<=2 ug ml-1
COc1c(N2C[C@@H]3CCCN[C@@H]3C2)c(F)cc2c(=O)c(C(=O)O)cn(C3CC3)c12	Activity	<=1 ug ml-1
CC1(C)S[C@@H]2[C@H](NC(=O)[C@H](N)c3ccc(O)cc3)C(=O)N2[C@H]1C(=O)O	Activity	<=0.5 ug ml-1
C[C@@H](O)[C@H]1C(=O)N2C(C(=O)O)=C(SCCNC=N)C[C@H]12 [IMIPENEM ANHYDROUS]	Activity	<=4 ug ml-1
C[C@H]1COc2c(N3CCN(C)CC3)c(F)cc3c(=O)c(C(=O)O)cn1c23.C[C@H]1COc2c(N3CCN(C)CC3)c(F)cc3c(=O)c(C(=O)O)cn1c23.O	Activity	<=1 ug ml-1

[in] For the compound "CO[C@@]1(NC(=O)Cc2cccs2)C(=O)N2C(C(=O)O)=C(COC(N)=O)CS[C@@H]21" , report Activity.
[out] <=8 ug ml-1

[in] For the compound "C[C@@H](O)[C@H]1C(=O)N2C(C(=O)O)=C(S[C@@H]3CN[C@H](C(=O)Nc4cccc(C(=O)O)c4)C3)[C@H](C)[C@H]12" , report Activity.
[out] <=4 ug ml-1

[in] For the compound "Cc1ncc([N+](=O)[O-])n1CCO" , report Activity.
[out] <=2 ug ml-1

[in] For the compound "CC(=O)OCC1=C(C(=O)O)N2C(=O)[C@@H](NC(=O)Cc3cccs3)[C@H]2SC1" , report Activity.
[out] <=8 ug ml-1

[in] For the compound "O=C(O)c1cn(C2CC2)c2cc(N3CCNCC3)c(F)cc2c1=O" , report Activity.
[out] <=0.5 ug ml-1

[in] For the compound "C[C@H]1c2cccc(O)c2C(=O)C2=C(O)[C@]3(O)C(=O)C(C(N)=O)=C(O)[C@@H](N(C)C)[C@@H]3[C@@H](O)[C@@H]21.O" , report Activity.
[out] <=4 ug ml-1

[in] For the compound "CCC[C@@H]1C[C@@H](C(=O)N[C@@H]([C@H]2O[C@H](SC)[C@H](O)[C@@H](O)[C@H]2O)[C@H](C)Cl)N(C)C1" , report Activity.
[out] <=2 ug ml-1

[in] For the compound "CC[C@H]1OC(=O)[C@H](C)C(=O)[C@H](C)[C@@H](O[C@@H]2O[C@H](C)C[C@H](N(C)C)[C@H]2O)[C@](C)(OC)C[C@@H](C)C(=O)[C@H](C)[C@H]2N(CCCCn3cnc(-c4cccnc4)c3)C(=O)O[C@]12C" , report Activity.
[out] <=0.5 ug ml-1
